Recorded inhibition (viability loss, TRAIL sensitization) values for a group of molecules are listed next.
# assay comment: viability loss with TRAIL in NB7+C8 cells, primary screen, TRAIL sensitizer project, cell-based, ATPlite luminescence (AID 624354)
# measurement setup: at 10 µM, stronger effect = higher value
Among all 360,000 compounds or so, about 3,800 (1.1%) were called active. The full list was thinned out, with actives kept by preference.
quantity kind: inhibition (viability loss, TRAIL sensitization) (%)

molecule=CN(C)CCNC(=O)c1cccc(-c2cnc3c(NC=O)cc(-c4cccc(C(F)(F)F)c4)cn23)c1 result_number=59.1
molecule=CN1C(=O)[C@H]2[C@@H](/C=C/c3ccccc3)N3C(=O)CN(Cc4ccc(-c5ccccc5)cc4)C(=O)[C@@]3(C)[C@H]2C1=O result_number=7.89
molecule="COc1ccc(C(C)(O)c2nc(-c3cc(F)cc(F)c3)cs2)cc1 (stereo unspecified)" result_number=21
molecule=Fc1ccc2cnc(-c3ccccc3)cc2c1 result_number=-5.36
molecule=Cc1c(Nc2nc3ccccc3nc2NS(=O)(=O)c2cccs2)c(=O)n(-c2ccccc2)n1C result_number=-7.01
molecule="Cc1ccc(C2Nc3ccccc3C(=O)N2CCN2CCNC2=O)cc1 (stereo unspecified)" result_number=-20.4
molecule="OC1CN=C2Sc3ccccc3N2C1 (stereo unspecified)" result_number=-13.7
molecule="Cc1nc(C(F)(F)F)ccc1C(=O)N1CCC1(C)C(=O)NS(=O)(=O)c1ccccc1 (stereo unspecified)" result_number=-0.681
molecule=CC(=O)[C@@]12O[C@@H]1C[C@H]1[C@@H]3CC[C@H]4C[C@@H](O)CC[C@]4(C)[C@H]3CC[C@@]12C result_number=0.527
molecule=Oc1cccc2cc(-c3ccncc3)cnc12 result_number=47.7
molecule=COc1ccccc1N1CCN(S(=O)(=O)c2ccc3c(c2)NC(=O)CS3)CC1 result_number=8.43
molecule=CC(=O)c1cccc(-c2cnc3c(NC=O)cc(-c4ccc(N(C)C)cc4)cn23)c1 result_number=17.5
molecule="COC(=O)c1cccc(C(=O)N2CCCC(Nc3ccc4c(c3)OCCO4)C2)c1 (stereo unspecified)" result_number=-3.93
molecule=O=C(c1cc2ccccc2o1)N1CCN(c2cccc(C(F)(F)F)c2)CC1 result_number=-2.4
molecule=CCC(CC)c1nnc(NS(=O)(=O)Cc2ccccc2)s1 result_number=-5.15
molecule="CN(C(=O)CN1C(=O)/C(=C/c2ccc(Cl)cc2)SC1=S)C1CCS(=O)(=O)C1 (stereo unspecified)" result_number=10.1
molecule=O=C(CN(C(=O)c1csnn1)c1cccc(F)c1)NCc1ccc(F)cc1 result_number=-4.16
molecule=O=C(NCc1ccc(Cl)cc1)c1cc2c(nc3sccn32)s1 result_number=0.401
molecule="CCN(C(=O)CN1C(=O)/C(=C/c2ccc(F)cc2)SC1=S)C1CCS(=O)(=O)C1 (stereo unspecified)" result_number=-9.46
molecule=O=[N+]([O-])c1cccc(C=NN=Cc2ccccc2O)c1 result_number=11
molecule=COc1ccc(C(=O)NCC[N+](C)(C)C)cc1 result_number=-3.08

###

# assay comment: viability loss with TRAIL in NB7+C8 cells, primary screen, TRAIL sensitizer project, cell-based, ATPlite luminescence (AID 624354)
# measurement setup: at 10 µM
In all, about 360,000 compounds went through this assay and about 3,800 (1.1%) were called active.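 How the source made its calls: active means compounds causing at least 50% loss of cell viability in the single-dose screen, relative to plate controls; inactive means the rest.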 The list comes from a sample in which actives are over-represented; it also holds close analogues and randomly drawn compounds.
Possible outcomes: yes = active, no = inactive

smiles_structure=CCCCc1nc(NCCN)c(C#N)c2c1CSC(C)(C)C2 label_class=yes
smiles_structure=CC(C)(C)OC(=O)C[C@@H]1C/C=C\C[C@@H](CC(=O)N[C@H](CO)Cc2ccccc2)C(=O)NC[C@@H](c2ccccc2)OC1=O label_class=no
smiles_structure=CC(=O)N(Cc1cc(=O)[nH]c2ccccc12)c1ccc(C)cc1C label_class=no
smiles_structure=COc1ccc(Cl)cc1NC(=O)CN(C)C(=O)c1cn(-c2ccccc2)nc1-c1cccs1 label_class=no
smiles_structure=CCCCc1nc(NCc2ccccc2)c(C#N)c2c1CCCC2 label_class=no
smiles_structure=CC(C)(C)OC(=O)C[C@H]1C/C=C\C[C@@H](CC(=O)N[C@H](CO)Cc2ccccc2)C(=O)NC[C@@H](c2ccccc2)OC1=O label_class=no
smiles_structure=Cc1nc(Cl)c2oc3ccccc3c2n1 label_class=yes
smiles_structure=O=C(Nc1cccc2c1N(C(=O)c1ccco1)CCC2)c1ccco1 label_class=no
smiles_structure=CCC(=O)N(Cc1cc2ccccc2[nH]c1=O)c1ccc(OC)cc1 label_class=no
smiles_structure=O=[N+]([O-])c1ccc(C=Nc2ccc(Cl)cc2Cl)s1 label_class=yes

###

# assay comment: viability loss with TRAIL in NB7+C8 cells, primary screen, TRAIL sensitizer project, cell-based, ATPlite luminescence (AID 624354)
# measurement setup: at 10 µM
Screen size: about 360,000 compounds; about 3,800 (1.1%) were called active.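 The calls were made as follows: active = compounds causing at least 50% loss of cell viability in the single-dose screen, relative to plate controls; inactive = the rest.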 The sample as a whole holds a higher share of actives than the screen did.
Possible outcomes: True = active, False = inactive

compound="Cc1nn(-c2ccccc2)nc1C(=O)OCC(=O)N1CCCCC1C (stereo not given)" label_class=False
compound=COc1cc(SC)ccc1C(=O)Nc1nc(C)cs1 label_class=True
compound=COc1cccc(/C=C/C(=O)Nc2ccc3c(c2)OCCO3)c1 label_class=True
compound=COc1cccc(-c2ccc(SCC(=O)N3CCN(c4ccccc4)CC3)nn2)c1 label_class=False
compound=Cc1ccnc(NC(=O)c2ccoc2C)c1 label_class=False
compound=CN(Cc1ccccc1)C(=O)COC(=O)/C=C/c1ccc2c(c1)OCO2 label_class=False
compound="CSCCC(NC(N)=O)C(=O)N(C)CC(=O)Nc1ccc(C)cc1 (stereo not given)" label_class=False
compound=COc1cccc(C(=O)NNC(=O)/C=C/c2ccccc2)c1 label_class=False
compound=COc1ccc(N(C)S(=O)(=O)c2cccc3nsnc23)cc1 label_class=False
compound=O=C(Nc1ccc(NC(=O)c2cccs2)cn1)c1ccco1 label_class=True
compound=Cn1c(=NC(=O)c2cnccn2)sc2ccccc21 label_class=True
compound=Cn1c(=NC(=O)c2ccco2)sc2cccc(F)c21 label_class=False
compound=COc1cc(SC)ccc1C(=O)Nc1cc(C)ccn1 label_class=True
compound=Cc1nc2ccc(N)nc2nc1C label_class=False
compound=CN1CCN(c2ccc(NC(=O)c3ccc4c(c3)OCCO4)cc2Cl)CC1 label_class=False
compound=Cc1cc(C)nc(NC(=O)/C=C/c2ccc(Cl)cc2)n1 label_class=False
compound=COC(=O)c1ccc(OC(=O)c2cnccn2)cc1 label_class=False
compound=CN(C)CCNC(=O)c1ccc(Cl)c2cc3ccccc3nc12 label_class=True
compound=CCC(CC)c1nnc(NC(=O)C2CCN(C(=O)c3ccco3)CC2)s1 label_class=False
compound=N#Cc1ccccc1NC(=O)c1ccc2c(c1)OCO2 label_class=False
compound=Cc1cccc(NC(=O)/C=C/c2ccc3c(c2)OCO3)n1 label_class=True
compound=COc1ccc(C(=O)CCC(=O)Nc2cccnc2)c(OC)c1 label_class=False
compound=Cc1cc(C)n(C(=O)CCNC(=O)c2ccccc2Cl)n1 label_class=False
compound=Cc1ccccc1OCC(=O)Nc1nc(C)c(C(=O)N(C)C)s1 label_class=False
compound="CC(OC(=O)CNC(=O)c1ccco1)C(=O)Nc1ccc(Cl)cn1 (stereo not given)" label_class=False

###

# assay comment: viability loss with TRAIL in NB7+C8 cells, primary screen, TRAIL sensitizer project, cell-based, ATPlite luminescence (AID 624354)
# measurement setup: at 10 µM, stronger effect = higher value
In all, about 360,000 compounds went through this assay and about 3,800 (1.1%) were called active. The entries come from a sample that favours actives as a whole.
Recorded inhibition (viability loss, TRAIL sensitization) values for a group of molecules are listed next.
quantity kind: inhibition (viability loss, TRAIL sensitization) (%)

molecule=COc1ccc(OC)c(/C=N/NC(=O)c2ccc[n+](CC(=O)c3ccccc3)c2)c1 result_number=-13.4
molecule=Cc1cc(OC(=O)c2ccccc2Cl)ccc1N1C(=O)CCC1=O result_number=7.7
molecule=O=C1COc2c1ccc(O)c2O result_number=-11.8
molecule=NC(=O)c1ccc(N2CCOCC2)nc1 result_number=-4.39
molecule=Cc1ccc(S(=O)(=O)NNC(=S)NC(C)(C)C)cc1 result_number=-2.34
molecule=CS(=O)(=O)c1ccc(C(=O)NNC(=O)c2cccs2)cc1 result_number=-3.16
molecule="Cc1nc(N2CCCC2C(=O)O)c2oc3ccccc3c2n1 (configuration not stated)" result_number=-12.2
molecule=C[C@@H](Nc1nc(-c2ccccc2)nc2c1oc1ccccc12)C(=O)O result_number=-9.15
molecule="CCC1Oc2ccccc2N(CC(=O)NCCCN2CCN(CC)CC2)C1=O (configuration not stated)" result_number=-10.7
molecule="COc1cccc(/C=N\\NC(=O)C2=NNC(=O)C2C)c1O (configuration not stated)" result_number=61.6
molecule=O=C(NNc1c2ccccc2nc2ccccc12)c1cc2ccccc2cc1O result_number=11.6
molecule=C[C@H]1[C@H]2c3nc4ccccc4n3C[C@H]1ON2C1CCCCC1 result_number=-6.24
